Task for the reader: assign each of the following molecules its reported Emax.
Molecular target: KCNQ2/3 channels (Homo sapiens, UniProt O43525+O43526)
Construct: expressed in transfected cells
Sequence (O43526 whole entry): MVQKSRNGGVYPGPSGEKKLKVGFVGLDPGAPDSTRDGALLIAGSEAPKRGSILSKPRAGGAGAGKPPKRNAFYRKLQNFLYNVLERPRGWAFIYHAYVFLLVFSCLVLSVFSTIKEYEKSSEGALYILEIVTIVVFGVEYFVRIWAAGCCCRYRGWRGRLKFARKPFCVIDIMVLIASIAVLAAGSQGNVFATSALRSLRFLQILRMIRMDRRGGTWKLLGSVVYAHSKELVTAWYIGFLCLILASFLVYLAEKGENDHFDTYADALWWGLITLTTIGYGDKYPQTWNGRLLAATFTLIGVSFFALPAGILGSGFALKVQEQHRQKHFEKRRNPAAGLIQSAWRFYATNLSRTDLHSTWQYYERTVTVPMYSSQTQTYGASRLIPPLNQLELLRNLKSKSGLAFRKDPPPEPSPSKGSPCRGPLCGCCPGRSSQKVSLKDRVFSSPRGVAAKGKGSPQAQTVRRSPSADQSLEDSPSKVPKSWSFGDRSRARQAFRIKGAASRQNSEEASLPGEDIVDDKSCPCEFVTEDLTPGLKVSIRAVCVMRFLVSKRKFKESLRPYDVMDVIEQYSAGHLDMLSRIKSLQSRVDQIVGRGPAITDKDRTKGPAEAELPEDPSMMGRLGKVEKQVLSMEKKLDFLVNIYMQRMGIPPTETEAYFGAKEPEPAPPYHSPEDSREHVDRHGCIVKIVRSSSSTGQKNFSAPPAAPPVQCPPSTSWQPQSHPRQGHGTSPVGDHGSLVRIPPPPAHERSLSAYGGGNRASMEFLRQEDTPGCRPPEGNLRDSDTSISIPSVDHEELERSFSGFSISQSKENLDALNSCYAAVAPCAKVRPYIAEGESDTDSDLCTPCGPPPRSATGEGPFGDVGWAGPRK
Sequence (O43525 whole entry): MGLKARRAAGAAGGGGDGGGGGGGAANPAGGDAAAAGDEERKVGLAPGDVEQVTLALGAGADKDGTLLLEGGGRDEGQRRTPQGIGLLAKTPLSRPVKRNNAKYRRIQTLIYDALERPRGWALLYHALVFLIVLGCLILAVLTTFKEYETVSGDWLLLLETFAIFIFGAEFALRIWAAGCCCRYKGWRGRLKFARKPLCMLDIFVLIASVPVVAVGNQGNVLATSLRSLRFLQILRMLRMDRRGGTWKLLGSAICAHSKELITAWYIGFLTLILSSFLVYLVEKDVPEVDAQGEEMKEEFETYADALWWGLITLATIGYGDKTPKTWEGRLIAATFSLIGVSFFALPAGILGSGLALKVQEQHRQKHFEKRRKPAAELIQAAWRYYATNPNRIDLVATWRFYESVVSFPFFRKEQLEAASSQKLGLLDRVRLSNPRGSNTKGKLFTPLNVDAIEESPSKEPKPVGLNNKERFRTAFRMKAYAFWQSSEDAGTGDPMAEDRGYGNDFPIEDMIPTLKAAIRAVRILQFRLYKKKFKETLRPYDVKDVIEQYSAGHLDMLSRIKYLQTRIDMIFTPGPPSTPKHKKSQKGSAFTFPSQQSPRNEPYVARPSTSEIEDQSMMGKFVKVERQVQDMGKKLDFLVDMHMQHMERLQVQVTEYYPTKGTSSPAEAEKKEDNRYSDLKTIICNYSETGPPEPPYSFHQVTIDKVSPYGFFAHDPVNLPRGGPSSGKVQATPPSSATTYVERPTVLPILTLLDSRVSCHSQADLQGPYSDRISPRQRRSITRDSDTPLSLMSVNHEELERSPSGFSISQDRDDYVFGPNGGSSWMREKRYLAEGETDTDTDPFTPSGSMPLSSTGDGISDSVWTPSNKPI
Test: Fluorescence assay using a voltage sensitive dye (fluorimetry)
Assay type: cell-based
Conditions: CHO-K1, plateau effect relative to saturated retigabine (50 μM) = 100%; CHO-K1 cells expressing KCNQ2/3; negative values = antagonistic; read-out: Fluorimetry % efficacy (retigabine = 100%)
Provide a numeric answer, followed by its unit.

Per the record, "CCSc1nc(N2CCOCC2)cc(C)c1C(=O)NCc1ccc(F)cc1-c1ccc(F)cc1" has Emax of -61%

Per the record, "CC(=O)N(C)c1nc(N2CCOCC2)cc(C)c1C(=O)NCc1cccc(F)c1" has Emax of 22%

Per the record, "COc1nc(N2CCOCC2)cc(C)c1C(=O)NCCCC(C)(C)C" has Emax of 236%

Per the record, "CCCc1nc(N2CCOCC2)cc(C)c1C(=O)NCc1cccc(F)c1" has Emax of 176%

Per the record, "CCCc1nc(N2CCOCC2)cc(C)c1C(=O)NCc1cc(F)cc(F)c1" has Emax of 193%

Per the record, "CCSc1nc(N(C)Cc2ccc(F)cc2)cc(C)c1C(=O)NCc1cccc(F)c1" has Emax of 122%

Per the record, "CCSc1nc(N2CCOC[C@@H]2C)cc(C)c1C(=O)NCc1cccc(F)c1" has Emax of 222%

Per the record, "CCSc1nc(N2CCOCC2)cc(C)c1C(=O)NCc1ccc(Cl)cc1" has Emax of 149%

Per the record, "CCSc1nc(N2CCO[C@@H](C)C2)cc(C)c1C(=O)NCc1cccc(F)c1" has Emax of 125%

Per the record, "CCSc1nc(N2CCC(C(=O)O)CC2)cc(C)c1C(=O)NCc1cccc(F)c1" has Emax of 16%

Per the record, "CCSc1nc(N2CCOCC2)cc(C)c1C(=O)NCc1cccc(S(C)(=O)=O)c1" has Emax of 61%

Per the record, "Cc1cc(N2CCOCC2)nc(C2CC2)c1C(=O)NCCCC(C)(C)C" has Emax of 230%

Per the record, "COc1nc(N2CCOC[C@H]2C)cc(C)c1C(=O)NCc1ccc(C(F)(F)F)cc1" has Emax of 164%

Per the record, "CCCOc1nc(N2CCOCC2)cc(C)c1C(=O)NCc1cccc(F)c1" has Emax of 153%

Per the record, "CCSc1nc(N2CCOC[C@@H]2COC)cc(C)c1C(=O)NCc1ccc(F)cc1" has Emax of 129%

Per the record, "CCN(C)c1nc(N2CCOCC2)cc(C)c1C(=O)NCc1cc(F)cc(F)c1" has Emax of 239%

Per the record, "Cc1cc(N2CCOCC2)nc(SCC(C)C)c1C(=O)NCc1cccc(F)c1" has Emax of 164%

Per the record, CCSc1nc(N2CCOC(C)C2)cc(C)c1C(=O)NCCCC(C)(C)C (stereo not drawn) has Emax of 212%

====

Target: KCNQ2/3 channels (Homo sapiens, UniProt O43525+O43526)
Construct: expressed in transfected cells
Experiment: Fluorescence assay using a voltage sensitive dye (fluorimetry)
Assay type: cell-based
Details: CHO-K1 cells expressing KCNQ2/3; IC50 where % efficacy is negative; read-out: Fluorimetry EC50/IC50
Task for the reader: assign each of the following compounds its reported EC50.
Give just the number in nM; leave the unit off.

Per the record, "CCSc1nc(N(C)Cc2ccc(F)cc2)cc(C)c1C(=O)NCc1cccc(F)c1" has EC50 of 235

Per the record, "Cc1cc(N2CCOC[C@H]2C)nc(N(C)C)c1C(=O)NCCCC(C)(C)C" has EC50 of 168

Per the record, "CCSc1nc(N2CCC(=O)CC2)cc(C)c1C(=O)NCc1cccc(F)c1" has EC50 of 2520

Per the record, "CCSc1nc(N2CCOC[C@@H]2COC)cc(C)c1C(=O)NCc1cccc(F)c1" has EC50 of 86

Per the record, "CSc1nc(N2CCOCC2)cc(C)c1C(=O)NCCCC(C)(C)C" has EC50 of 63

Per the record, "COCc1cc(CNC(=O)c2c(C)cc(N3CCOCC3)nc2C2CC2)ccc1F" has EC50 of 489

Per the record, "CCOc1nc(N2CCOCC2)cc(C)c1C(=O)NCc1ccc(F)c(F)c1" has EC50 of 117

Per the record, "COC[C@@H]1CN(c2cc(C)c(C(=O)NCc3ccc(Cl)cc3)c(C(C)C)n2)CCO1" has EC50 of 157

Per the record, "CCSc1nc(N2CCc3nc(C(F)(F)F)ccc3C2)cc(C)c1C(=O)NCc1cccc(F)c1" has EC50 of 112

Per the record, "CCCc1nc(N2CCOCC2)cc(C)c1C(=O)NCCCC(C)(C)C" has EC50 of 62

Per the record, CCSc1nc(N2CCOCC2)cc(C)c1C(=O)NCC1CCCCO1 (stereo not drawn) has EC50 of 4480

Per the record, "CCSc1nc(N2CCOCC2)cc(C)c1C(=O)NCCC(C)C" has EC50 of 571

Per the record, "CCSc1nc(N2CCOCC2)cc(C)c1C(=O)NCCCC(C)(F)F" has EC50 of 397

Per the record, "COc1nc(N2CCOCC2)cc(C)c1C(=O)NCc1ccc(F)cc1" has EC50 of 645

Per the record, "CCN(C)c1nc(N2CCOCC2)cc(C)c1C(=O)NCc1cccc(F)c1" has EC50 of 385

Per the record, "Cc1cc(N2CCOCC2)nc(N(C)C)c1C(=O)NCc1ccc(F)c(F)c1" has EC50 of 402

Per the record, "Cc1cc(N2CCOCC2)nc(C(C)C)c1C(=O)NCCCC(F)(F)F" has EC50 of 314

Per the record, "CCSc1nc(N(C)CC2CCOCC2)cc(C)c1C(=O)NCc1cccc(F)c1" has EC50 of 528
